- subject.of.test: T1, recombinant biotinylated monomeric Fc fusion of human Folate Receptor 1 (huFolR1 ECD-AcTev-Fcknob-Avi tag … (human, UniProt P0DOX5 223-449 = IgG part, biotin on the C-terminal Avi tag))
- T1 construct: also called huFolR1-Fc; human FolR1-Fc
- experimental.protocol: SPR ProteOn, Fab analyte on immobilized antigen-Fc
Parameter: pKd. Scope: all listed entries.
Lab note: report pKd as minus log10 of the concentration in molar units, number only.

Return reported pKd. Input binder: 21D1 Fab (Fab, V domains shown, bacterial Fab) VH: QVQLVQSGAEVKKPGASVKVSCKASGYTFTSYYMHWVRQAPGQGLEWMGIINPSGGSTSYAQKFQGRVTMTRDTSTSTVYMELSSLRSEDTAVYYCARNYYVGVSPFDYWGQGTLVTVSS VL: QAVVTQEPSLTVSPGGTVTLTCGSSTGAVTTSNYANWVQEKPGQAFRGLIGGTNKRAPGTPARFSGSLLGGKAALTLSGAQPEDEAEYYCALWYSNLWVFGGGTKLTVL
7.20

New cases:
Return reported pKd. Input binder: 16F12 Fab (Fab, V domains shown, bacterial Fab) VH: QVQLVQSGAEVKKPGASVKVSCKASGYTFTSYYMHWVRQAPGQGLEWMGIINPSGGSTSYAQKFQGRVTMTRDTSTSTVYMELSSLRSEDTAVYYCARNFTVLRVPFDYWGQGTLVTVSS VL: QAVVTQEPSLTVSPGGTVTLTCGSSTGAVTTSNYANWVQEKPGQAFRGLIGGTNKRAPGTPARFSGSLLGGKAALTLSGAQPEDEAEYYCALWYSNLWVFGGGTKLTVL
7.17
